# SYSTEM NAME: Tyrosine-protein kinase Fyn (Homo sapiens)
# ASSAY METHOD TEXT: inhibitors of human FYN tyrosine kinase activity – biochemical, Z'-LYTE, FRET readout, direct format, dose response (AID 1671282)
# CONDITIONS USED: Z'-LYTE FRET kinase assay, recombinant FYN
ASSAY ENDPOINT: IC50

// returns IC50 for "COc1cc2ncnc(Nc3cccc(Cl)c3)c2cc1OC" with Tyrosine-protein kinase Fyn (Homo sapiens); value = 8.78 µM
